The reported measurements were obtained from patent US6821927B1.

# protocol_summary: log P determination by HPLC (EEC directive 79/831 Annex V. A8)
# Assay type: physicochemical
# test_parameters: HPLC, gradient method, acetonitrile/0.1% aqueous phosphoric acid
observation_type: chromatographic logP

Look up chromatographic logP for this molecule: CON=C(C(=O)N(C)O)c1ccccc1Oc1ncnc(Oc2ccccc2C#N)c1F
2.43

Would you mind doing CON=C(C(=O)N(C)OC)c1ccccc1Oc1ncnc(Oc2ccccc2Cl)c1F as well?
3.5

Follow-up item: CON=C(C(=O)N(C)O)c1ccccc1Oc1ncnc(Oc2cccc(Cl)c2Cl)c1F
3.22

Now give it for CON=C(C(=O)N(C)O)c1ccccc1Oc1ncnc(Oc2cc(Cl)ccc2Cl)c1F too.
3.28

Next entry: CON=C(C(=O)N(C)O)c1ccccc1Oc1ncnc(Oc2ccccc2F)c1F
2.66

Please answer likewise for CON=C(C(=O)N(C)O)c1ccccc1Oc1ncnc(Oc2cccc(Cl)c2C)c1F
3.29
